Tested on: VCaP cells
Assay Protocol: Inhibition of proliferation of other prostate cancer cells: VCaP
Assay type: cell-based
Run Parameters: Homo sapiens, same method as LNCaP/AR
Measured Endpoint: IC50 (µM)

| Mol | Reading Unit | Quantitative Readout |
| --- | --- | --- |
| CCN(c1ccc(-n2cnc(C)c2)cc1)c1cc(-c2c(C)noc2C)ccc1C | µM | 1.16 |
| CCN(c1ccc(-n2ccnn2)cc1)c1cc(-c2c(C)noc2C)ccc1C | µM | 0.88 |
| CCN(c1ccc(-n2ccnn2)c(Br)c1)c1cc(-c2c(C)noc2C)ccc1C | µM | 0.75 |
| CCN(c1ccc(-n2ccnc2)c(F)c1)c1cc(-c2c(C)noc2C)ccc1C | µM | 1.22 |
| CCN(c1ccc(-n2ccnc2)c(Br)c1)c1cc(-c2c(C)noc2C)ccc1C | µM | 1.35 |
| CCN(c1ccc(-n2ccnc2)c(Cl)c1)c1cc(-c2c(C)noc2C)ccc1C | µM | 2.27 |
| CCN(c1ccc(F)c(-n2ccnc2)c1)c1cc(-c2c(C)noc2C)ccc1C | µM | 1.27 |
| CCN(c1ccc(C#N)c(Cl)c1)c1cc(-c2c(C)nn(C)c2C)ccc1C | µM | 0.78 |
